Data provenance is paper PMC5540273.

Tested on: SRC
Settings: concentration: 1 μM, replicates: in singlicate; n = 1;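 also: KINOMEscan kinase panel screen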
assay-metric: %Inh (%)
Record the value in %, omitting the unit from your answer.

Item under review: "CC(C)(CN)c1nc(-c2ccc(Cl)c(O)c2)c(-c2ccncc2)[nH]1.O=C(O)C(F)(F)F" . Reported %Inh?
99.9

Input "Cn1ccc2ncnc(Oc3ccc(NC(=O)Nc4ccncc4)c(Cl)c3)c21"
13

Input "COc1ccc(Nc2ncc(C#N)c(Nc3ccccc3C(N)=O)n2)cc1N1CCN(C)CC1.Cl"
100

Input COc1cc(Nc2nccc(N3CCC(NC(=O)c4cccc(NC(C)=O)c4)C3)n2)cc(OC)c1OC (stereo not shown)
25

Input "Nc1nc(-c2ccc3c(N)n[nH]c3c2)cc(N2CCCC2)n1"
0

Input "c1ccc(-c2n[nH]cc2-c2ccnc3ccccc23)nc1"
7

Input "COCCNC(=O)c1ccc(-c2cc(C(=O)NC3CC3)cc(F)c2C)cc1"
23

Input "O=c1cc(N2CCOCC2)nc2n(Cc3cccc(C(F)(F)F)c3)ccn12"
0

Input "COc1ccc(S(=O)(=O)NC2CCN(c3cc(C)nc(Nc4cccc(C#N)c4)n3)CC2)cc1.O=C(O)C(F)(F)F"
0

Input Cc1c(Cn2c(C)nn3c(=O)cc(N4CCOC(C)C4)nc23)cccc1C(F)(F)F (stereo not shown)
0

Input "CCc1nc(-c2cccc(C)c2)c(-c2ccnc(NCc3ccccc3)c2)s1"
7

Input "NS(=O)(=O)c1cccc(-c2ccc3ncc(N4CCOCC4)nc3c2)c1"
0

Input "Cc1cccc(-c2nc(Nc3ccc4ncsc4c3)c3ccccc3n2)n1"
7

Input "C[C@@H](Oc1cc(-n2cnc3ccc(NC(=O)NC(C)(C)C)cc32)sc1C(N)=O)c1ccccc1Cl"
0

Input "NS(=O)(=O)CCc1cccc(Nc2nccc(-c3c(-c4cccc(NC(=O)c5c(F)cccc5F)c4)nn4ccccc34)n2)c1"
97.8

Input "Cl.Oc1cccc(Nc2ccnc3cc(-c4ccncc4)ccc23)c1"
100

Input "CC(C)(C)n1cnc2c(N)ncnc21"
0

Input "Cc1ccc(C(=O)NCC(N)=O)cc1-n1c(C)cc(OCc2ccc(F)cc2F)c(Br)c1=O"
16

Input "Cn1cc(-c2ccc3c(c2)CCN3C(=O)Cc2ccccc2Cl)c2c(N)ncnc21"
99.1

Input "Fc1ccc(-c2nn3c(OCC(F)(F)F)cccc3c2-c2ccncc2)cc1"
0

Input "Nc1nccc(-c2c(-c3ccc(F)cc3)ncn2C2CCN(CC(F)(F)F)CC2)n1"
0

Input "Cc1nnc(-c2ccc(C)c(-c3ccc(C(=O)Nc4ccc(NS(C)(=O)=O)cc4)cc3)c2)o1"
0

====

Would you mind telling me the reported %Inh of each entry?
Tested on: CDC2L2
Details: concentration: 1 μM, replicates: in singlicate; n = 1
Record the value in %, omitting the unit from your answer.

Reported %Inh for CDC2L2, given "CSc1ccc(-c2cc3ncnc(SCC(=O)O)c3s2)cc1" ?
0

Input "NS(=O)(=O)c1cccc(-c2ccc3ncc(N4CCOCC4)nc3c2)c1"
34

Input "Fc1ccc(-c2ncn(CCCN3CCOCC3)c2-c2cccnc2)cc1"
0

Input "O=C1NC(=O)C(N2CCc3ccccc32)=C1c1cccc(Cl)c1"
5

Input "Cc1cccc(-c2nc(-c3ccc(S(C)(=O)=O)cc3)sc2-c2ccncc2)c1"
0

Input "CNc1ncnc2[nH]ncc12"
0

====

System: MEK4
Construct: gene MAP2K4
Conditions: concentration: 1 μM, replicates: in singlicate; n = 1
Label key: label 1 means %Inh under 4%; label 0 means %Inh of 4% or more.

Does "CN1c2ccc(CNc3ccc(F)cc3)cc2-c2c(cnn2C)S1(=O)=O" have %Inh strictly under 4%?
label 0

Input "CCc1ccnc(/C=C/c2n[nH]c3cc(Sc4ccccc4C(=O)NC)ccc23)c1"
label 1

Input "Nc1nc(-c2ccc3c(N)n[nH]c3c2)cc(N2CCCC2)n1"
label 1

Input "Cc1cccc(Cn2ccn3c(=O)cc(N4CCOCC4)nc23)c1"
label 0

Input "O=C1Cc2cc(Nc3nc(NCc4cccc(S(=O)(=O)C(F)(F)F)c4)ncc3C(F)(F)F)ccc2N1"
label 0

Input "O=c1cc(N2CCOCC2)nc2n(Cc3cccc(Cl)c3Cl)c(C3CC3)nn12"
label 1

Input "c1ccc(-c2n[nH]cc2-c2ccnc3ccccc23)nc1"
label 0

Input Cc1nnc(-c2ccc3ncc(-c4ccc(S(C)=O)cc4)n3c2)o1 (stereo not shown)
label 0

Input COc1ccc(Nc2nccc(N3CCC(NC(=O)Nc4cc(C)ccc4C)C3)n2)cc1 (stereo not shown)
label 0

====

Test system: MEK4
Construct: gene MAP2K4
Conditions: concentration: 1 μM, replicates: in singlicate; n = 1
Would you mind telling me the reported %Inh of each entry?
Record the value in %, omitting the unit from your answer.

Item under review: Cc1c(Cn2c(C)nn3c(=O)cc(N4CCOC(C)C4)nc23)cccc1C(F)(F)F (stereo not drawn) . Reported %Inh?
17

Input "CN(C(=O)c1ccc(-c2cc(-c3c[nH]nc3-c3ccccn3)ccn2)cc1)C1CCOCC1"
0

Input "O=c1cc(N2CCOCC2)nc2n(Cc3cccc(C(F)(F)F)c3)ccn12"
31

Input "O=C(c1ccc(-c2cc(-c3c[nH]nc3-c3ccccn3)ccn2)cc1)N1CCOCC1"
14

Input "COc1cc2c(cc1OCCN1CCN(C)CC1)ncc1c3ccc(C#N)cc3[nH]c21"
0

Input "N#Cc1c(N2CCOCC2)sc(-c2ccn[nH]2)c1-c1ccc(Cl)cc1"
0

====

Would you mind telling me the reported %Inh of each entry?
System: FER
Details: concentration: 1 μM, replicates: in singlicate; n = 1
Record the value in %, omitting the unit from your answer.

Item under review: O=C(NCCCN1CCOCC1)c1cccc(Nc2nccc(Nc3ccc(Oc4ccccc4)cc3)n2)c1 [GW663929] . Reported %Inh?
19

Input NS(=O)(=O)c1cccc(-c2ccc3nccc(-c4cccc(S(N)(=O)=O)c4)c3c2)c1 [GW867253]
0

Input Cc1nnc(-c2ccc3ncc(-c4ccc(S(C)=O)cc4)n3c2)o1 (stereo not shown)
0

Input O=c1cc(N2CCOCC2)nc2n(Cc3cccc(C(F)(F)F)c3)ccn12 [GSK2297543]
34

Input COc1ccc(Nc2ncc(C#N)c(Nc3ccccc3C(N)=O)n2)cc1N1CCN(C)CC1.Cl [GSK1558669]
99.5

Input "O=C(NOCC1CC1)c1ccc(F)c(F)c1Nc1ccc(I)cc1Cl"
0

Input COC(=O)Nc1nc2cc(Oc3ccc(NC(=O)Nc4cc(F)ccc4F)cc3)ccc2[nH]1.Cl [GW701424]
0

Input O=c1cc(N2CCOCC2)nc2n(Cc3cccc4ccccc34)ccn12 [GSK2333389]
1

Input "CN1c2ccc(NCc3ccc(F)cc3)cc2-c2c(cnn2C)S1(=O)=O"
0

Input CC(=O)Nc1ccc(COc2ccc(Nc3ccnc4cc(-c5ccccn5)ccc34)cc2)cc1.Cl [GW440148]
0

====

Would you mind telling me the reported %Inh of each entry?
Test system: PIM3
Conditions: concentration: 1 μM, replicates: in singlicate; n = 1
Record the value in %, omitting the unit from your answer.

Item under review: Cc1nnc(-c2ccc3occ(-c4ccc(C(C)O)cc4)c3c2)o1 (centres unmarked) . Reported %Inh?
31

Input Cc1cccc(Cn2ccn3c(=O)cc(N4CCOCC4)nc23)c1 [GSK2297542]
13

Input "CCc1ccnc(/C=C/c2n[nH]c3cc(Sc4ccccc4C(=O)NC)ccc23)c1"
0

Input Cc1nnc(-c2ccc3ncc(-c4ccc(S(C)=O)cc4)n3c2)o1 (centres unmarked)
0

Input CCn1cnc2c(N)ncnc21 [GW345098]
0

Input CNc1ncnc2[nH]ncc12 [SKF-18355]
0

Input C[C@@H](Oc1cc(-n2cnc3ccc(NC(=O)NC(C)(C)C)cc32)sc1C(N)=O)c1ccccc1Cl [GSK346294]
0

Input O=c1cc(N2CCOCC2)nc2n(Cc3cccc4ccccc34)ccn12 [GSK2333389]
0

Input Cc1ccc(NC(=O)c2ccnc(N3CCN(C)CC3)c2)cc1-c1ccc(C(=O)NCC2CC2)cc1 [GW775604]
4

Input COc1ccc(COc2cc(-n3cnc4ccccc43)sc2C(N)=O)cc1 [GSK1024304]
0

Input O=C(NCCNc1ccnc(Nc2ccc(F)cc2)n1)c1cc2ccccc2s1 [GSK1379874]
0

====

Test system: NEK6
Conditions: concentration: 1 μM, replicates: in singlicate; n = 1
Would you mind telling me the reported %Inh of each entry?
Record the value in %, omitting the unit from your answer.

Item under review: O=c1cc(N2CCOCC2)nc2n(Cc3cccc(Cl)c3Cl)c(C3CC3)nn12 [GSK2358994] . Reported %Inh?
8

Input Fc1ccc(-c2nn3c(OCC(F)(F)F)cccc3c2-c2ccncc2)cc1 [GW514784]
0

Input Cl.Cl.Cl.Fc1ccc(-c2ncn(C3CCNCC3)c2-c2ccnc(Nc3ccccc3)n2)cc1 [SB-238039]
0

Input O=c1cc(N2CCOCC2)nc2n(Cc3cccc(F)c3)ccn12 [GSK2297430]
0

Input NCC(NC(=O)c1cc(-c2cn[nH]c2)c(-c2ccnc3[nH]ccc23)s1)c1ccccc1.O=C(O)C(F)(F)F.O=C(O)C(F)(F)F (centres unmarked) [GSK1325775]
0
